tested on: Fibroblast; assay: Multiplex assay against human fibroblast; assay type: toxicity, cell-based; settings: 24 h, 10 µM, compound concentration 10 uM, replicate 2
Item-by-item account of Population Fragmented Nuclei (%)
Hi! Could you send only the number? It should be in %, unit omitted.

Answered examples (4):
INSERT INTO measurements (smiles_string, unit_of_measure, number) VALUES
  ('CCOc1cc(C(=O)N2CCC(N3CCN(C)CC3)CC2)ccc1Nc1ncc2c(n1)N(C1CCCC1)c1ccccc1C(=O)N2C', '%', 10),
  ('O=C1N/C(=N/c2ccccc2F)S/C1=C\c1ccc(C(=O)O)cc1', '%', 5),
  ('O=C(Nc1ccc(Cl)cc1)Nc1cccc(-c2cccc(N3CCCC3)n2)c1', '%', 13),
  ('CCc1cccc(CC)c1NC(=O)c1nn(C)c2c1CCc1cnc(Nc3ccc(C(=O)NC4CCN(C)CC4)cc3OC(F)(F)F)nc1-2', '%', 15);

# query: Population Fragmented Nuclei (%) of entry CCCS(=O)(=O)Nc1ccc(F)c(C(=O)c2c[nH]c3ncc(Cl)cc23)c1F
64
